Where do these numbers come from? They come from patent US20230219986A1.

target or test system: Ba/F3 L858R/T790M/C797S EGFR triple mutant cell line (Homo sapiens, UniProt P00533, T790M/C797S/L858R, cells depend on it)
Sequence (P00533 whole entry T790M/C797S/L858R): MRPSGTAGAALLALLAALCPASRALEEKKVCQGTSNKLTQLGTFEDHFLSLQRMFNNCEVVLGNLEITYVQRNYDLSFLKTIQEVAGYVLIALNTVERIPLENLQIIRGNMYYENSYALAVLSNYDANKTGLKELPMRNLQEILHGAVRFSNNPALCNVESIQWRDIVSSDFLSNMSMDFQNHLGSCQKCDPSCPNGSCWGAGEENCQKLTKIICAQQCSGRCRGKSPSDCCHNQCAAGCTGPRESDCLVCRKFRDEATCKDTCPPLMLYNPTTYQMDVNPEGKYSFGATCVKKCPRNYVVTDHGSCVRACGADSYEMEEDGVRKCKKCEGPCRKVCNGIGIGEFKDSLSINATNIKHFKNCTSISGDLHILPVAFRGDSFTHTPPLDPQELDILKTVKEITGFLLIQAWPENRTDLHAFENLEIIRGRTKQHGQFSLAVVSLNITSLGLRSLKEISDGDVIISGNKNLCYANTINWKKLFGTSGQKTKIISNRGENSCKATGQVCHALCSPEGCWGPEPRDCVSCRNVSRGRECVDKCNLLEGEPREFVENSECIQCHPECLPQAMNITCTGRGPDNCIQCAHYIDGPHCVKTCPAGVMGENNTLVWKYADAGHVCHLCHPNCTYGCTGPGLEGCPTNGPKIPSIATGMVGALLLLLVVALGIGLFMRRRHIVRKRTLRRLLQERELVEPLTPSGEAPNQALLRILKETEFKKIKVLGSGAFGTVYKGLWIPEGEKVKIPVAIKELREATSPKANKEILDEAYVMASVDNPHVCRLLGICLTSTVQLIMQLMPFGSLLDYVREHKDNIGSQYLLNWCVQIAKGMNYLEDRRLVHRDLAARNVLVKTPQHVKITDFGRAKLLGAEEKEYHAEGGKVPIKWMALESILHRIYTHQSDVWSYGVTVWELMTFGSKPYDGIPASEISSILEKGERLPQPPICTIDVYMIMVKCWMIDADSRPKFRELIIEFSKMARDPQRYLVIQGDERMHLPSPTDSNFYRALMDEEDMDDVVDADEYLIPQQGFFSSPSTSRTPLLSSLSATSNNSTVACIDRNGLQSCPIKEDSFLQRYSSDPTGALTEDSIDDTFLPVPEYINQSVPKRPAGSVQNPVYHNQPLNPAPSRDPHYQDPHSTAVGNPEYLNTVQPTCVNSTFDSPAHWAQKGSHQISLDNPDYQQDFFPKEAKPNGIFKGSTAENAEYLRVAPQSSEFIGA
protocol description: Cell proliferation inhibition experiment (CellTiter-Glo), Ba/F3 L858R/T790M/C797S
Type: cell-based
particulars: 72 hours, Cell Titer-Glo, read-out: Ba/F3 (L858R/T790M/C797S) IC50
Experimental: 3) 30 nL of gradient diluted compound was transferred into the 384-well experimental plate using Echo 550 (Labcyte) at a DMSO final concentration of 0.1%, and the culture plate was incubated in a cell incubator for 72 hours (37° C., 5% CO2). 4) 30 μL of Cell Titer-Glo reagent was added to each well and left for 30 minutes at room temperature and protected from light. 5) Envision microplate reader (PerkinElmer) detected chemiluminescence signals. […]
Friendly reminder: GI50 below 10 nM is yes, at or above is no.

Dear reviewer, please state whether COc1cc(N2CCC3(CC2)CCN(C(C)(C)CF)CC3)c(-c2cnn(C)c2)cc1Nc1ncc(Br)c(Nc2ccc3nccnc3c2P(C)(C)=O)n1 [compound 243] has GI50 strictly beneath 10 nM.
yes

Dear reviewer, please state whether CN(C)c1c(-c2cnn(C)c2)cc(Nc2ncc(Br)c(Nc3ccc4nccnc4c3P(C)(C)=O)n2)c2c1CCO2 [compound 29] has GI50 strictly beneath 10 nM.
yes

Dear reviewer, please state whether COc1cc(N2CCC3(CCN(CCF)CC3)CC2)c(-c2cnn(C)c2F)cc1Nc1ncc(Br)c(Nc2ccc3nccnc3c2P(C)(C)=O)n1 [compound 231] has GI50 strictly beneath 10 nM.
yes

Dear reviewer, please state whether COc1cc(N2CCC3(CC2)CCN(C2COC2)CC3)c(-c2cnn(C)c2)cc1Nc1ncc(Br)c(Nc2ccc3nccnc3c2P(C)(C)=O)n1 [compound 248] has GI50 strictly beneath 10 nM.
yes

Dear reviewer, please state whether COc1cc(N2CCC(N3CCOCC3)C(F)C2)c(-c2cnn(C)c2)cc1Nc1ncc(Br)c(Nc2ccc3nccnc3c2P(C)(C)=O)n1 (stereo not shown) [compound 214] has GI50 strictly beneath 10 nM.
yes

Dear reviewer, please state whether COc1cc(N2CCN(CCC(F)F)CC2)c(-c2cnn(C)c2)cc1Nc1ncc(Br)c(Nc2ccc3nccnc3c2P(C)(C)=O)n1 [compound 222] has GI50 strictly beneath 10 nM.
yes

Dear reviewer, please state whether Cn1cc(-c2cc(Nc3ncc(Br)c(Nc4ccc5nccnc5c4P(C)(C)=O)n3)cc(F)c2N2CCOCC2)cn1 [compound 46] has GI50 strictly beneath 10 nM.
no

Dear reviewer, please state whether COc1cc(N2CCOCC2)c(-c2cnn(C)c2)cc1Nc1ncc(F)c(Nc2ccc3nccnc3c2P(C)(C)=O)n1 [compound 81] has GI50 strictly beneath 10 nM.
no

Dear reviewer, please state whether COc1cc(N2CCC(N(C)C)C2)c(-c2cnn(C)c2)cc1Nc1ncc(Br)c(Nc2ccc3nccnc3c2P(C)(C)=O)n1 (stereo not shown) [compound 10] has GI50 strictly beneath 10 nM.
no

Dear reviewer, please state whether COc1cc(N2CCC3(CC2)CN(C(C)C)CCO3)c(-c2cnn(C)c2)cc1Nc1ncc(Br)c(Nc2ccc3nccnc3c2P(C)(C)=O)n1 [compound 202] has GI50 strictly beneath 10 nM.
yes

Dear reviewer, please state whether COc1cc(N2CCC(O)CC2)c(-c2cnn(C)c2)cc1Nc1ncc(Br)c(Nc2ccc3nccnc3c2P(C)(C)=O)n1 [compound 121] has GI50 strictly beneath 10 nM.
yes

Dear reviewer, please state whether COc1cc(N2CCOCC2)c(-c2cnn(S(=O)(=O)C3CC3)c2)cc1Nc1ncc(Br)c(Nc2ccc3nccnc3c2P(C)(C)=O)n1 [Compound 8] has GI50 strictly beneath 10 nM.
no

Dear reviewer, please state whether COc1c(Nc2ncc(Br)c(Nc3ccc4nccnc4c3P(C)(C)=O)n2)cc(-c2cnn(C)c2)c(N2CCC(N3CCN(C)CC3)CC2)c1F [compound 93] has GI50 strictly beneath 10 nM.
no

Dear reviewer, please state whether COc1cc(N2CCC(N3CCC(F)CC3)CC2)c(-c2cnn(C)c2)cc1Nc1ncc(Br)c(Nc2ccc3nccnc3c2P(C)(C)=O)n1 [compound 180] has GI50 strictly beneath 10 nM.
yes

Dear reviewer, please state whether COc1cc(N2CCOCC2)c(-c2cnn(C)c2)cc1Nc1ncc(C#N)c(Nc2ccc3nccnc3c2P(C)(C)=O)n1 [Compound 13] has GI50 strictly beneath 10 nM.
no

Dear reviewer, please state whether CCN1CCC2(CC1)CCN(c1cc(OC)c(Nc3ncc(Br)c(Nc4ccc5nccnc5c4P(C)(C)=O)n3)cc1-c1cnn(C)c1)CC2 [compound 226] has GI50 strictly beneath 10 nM.
yes

Dear reviewer, please state whether COc1cc(N2CCOCC2)c(-c2cnn(C)c2)c(F)c1Nc1ncc(Br)c(Nc2ccc3nccnc3c2P(C)(C)=O)n1 [compound 62] has GI50 strictly beneath 10 nM.
no

Dear reviewer, please state whether COc1cc(N2CCC3(CCN(CC(F)F)CC3)CC2)c(-c2cnn(C)c2)cc1Nc1ncc(Br)c(Nc2ccc3nccnc3c2P(C)(C)=O)n1 [compound 149] has GI50 strictly beneath 10 nM.
yes

* * *

target or test system: wild-type EGFR (Homo sapiens, UniProt P00533)
Construct: purchased Signalchem
Sequence (P00533 25-1210): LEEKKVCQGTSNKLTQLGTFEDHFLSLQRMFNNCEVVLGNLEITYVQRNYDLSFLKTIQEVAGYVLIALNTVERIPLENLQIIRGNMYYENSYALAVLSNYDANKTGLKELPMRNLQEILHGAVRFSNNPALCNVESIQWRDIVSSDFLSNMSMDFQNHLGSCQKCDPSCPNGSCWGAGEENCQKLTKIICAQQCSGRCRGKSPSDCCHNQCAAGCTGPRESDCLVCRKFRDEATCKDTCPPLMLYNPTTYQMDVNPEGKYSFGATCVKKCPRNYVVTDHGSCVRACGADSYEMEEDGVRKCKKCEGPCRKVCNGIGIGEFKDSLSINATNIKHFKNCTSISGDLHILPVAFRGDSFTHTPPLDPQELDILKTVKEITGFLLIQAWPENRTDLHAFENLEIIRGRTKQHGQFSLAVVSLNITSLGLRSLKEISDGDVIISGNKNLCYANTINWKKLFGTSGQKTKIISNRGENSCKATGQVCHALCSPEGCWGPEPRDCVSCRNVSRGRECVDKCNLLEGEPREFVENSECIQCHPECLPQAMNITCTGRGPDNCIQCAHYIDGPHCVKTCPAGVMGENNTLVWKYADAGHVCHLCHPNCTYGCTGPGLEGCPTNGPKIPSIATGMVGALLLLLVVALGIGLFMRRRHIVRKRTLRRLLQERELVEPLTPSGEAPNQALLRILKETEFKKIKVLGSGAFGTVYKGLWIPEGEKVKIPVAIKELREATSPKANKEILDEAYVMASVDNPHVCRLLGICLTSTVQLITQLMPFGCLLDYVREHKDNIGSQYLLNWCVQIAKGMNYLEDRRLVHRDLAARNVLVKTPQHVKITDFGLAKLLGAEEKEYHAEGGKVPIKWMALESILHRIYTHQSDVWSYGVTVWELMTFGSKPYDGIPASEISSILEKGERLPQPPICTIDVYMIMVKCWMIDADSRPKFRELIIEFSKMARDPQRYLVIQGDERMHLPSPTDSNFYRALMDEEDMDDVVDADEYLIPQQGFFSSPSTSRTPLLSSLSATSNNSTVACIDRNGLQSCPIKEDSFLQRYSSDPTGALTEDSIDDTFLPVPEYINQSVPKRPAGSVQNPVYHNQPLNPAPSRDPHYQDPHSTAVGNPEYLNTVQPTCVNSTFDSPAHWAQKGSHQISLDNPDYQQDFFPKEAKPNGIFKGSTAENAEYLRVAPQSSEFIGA
protocol description: Enzymology experiment in vitro (HTRF/FRET kinase activity), wild-type EGFR
Format: biochemical
particulars: HTRF KinEASE-TK, read-out: EGFR (WT) IC50
Exercise: for every item that follows, state its recorded pIC50.
// pIC50 is dimensionless: -log10 of concentration (M)

Let me know recorded pIC50 for COCCN(C)c1cc(OC)c(Nc2ncc(Br)c(Nc3ccc4nccnc4c3P(C)(C)=O)n2)cc1-c1cnn(C)c1 [compound 28] , thanks.
7.81

Let me know recorded pIC50 for COc1cc(N2CCN(CC3COC3)CC2)c(-c2cnn(C)c2)cc1Nc1ncc(Br)c(Nc2ccc3nccnc3c2P(C)(C)=O)n1 [compound 219] , thanks.
8.78

Let me know recorded pIC50 for COc1cc(N2CCC3CCN(CC4CC4)C3C2)c(-c2cnn(C)c2)cc1Nc1ncc(Br)c(Nc2ccc3nccnc3c2P(C)(C)=O)n1 (single isomer, unassigned) [234a] , thanks.
8.30

Let me know recorded pIC50 for COc1cc(N2CCC3(CC2)CCN(C2COC2)CC3)c(-c2cnn(C)c2)cc1Nc1ncc(Br)c(Nc2ccc3nccnc3c2P(C)(C)=O)n1 [compound 248] , thanks.
8.72

Let me know recorded pIC50 for CN(C)CCN1CCOc2c(Nc3ncc(Br)c(Nc4ccc5nccnc5c4P(C)(C)=O)n3)cc(-c3cnn(C)c3)cc21 [compound 122] , thanks.
8.47

Let me know recorded pIC50 for COc1ccc(-n2cccn2)cc1Nc1ncc(Br)c(Nc2ccc3nccnc3c2P(C)(C)=O)n1 [compound 20] , thanks.
6.75

Let me know recorded pIC50 for COc1cc(N2CCC(N3CC(F)C3)C2)c(-c2cnn(C)c2)cc1Nc1ncc(Br)c(Nc2ccc3nccnc3c2P(C)(C)=O)n1 (racemic) [compound 223] , thanks.
8.15

Let me know recorded pIC50 for COc1cc(N2CCOCC2)c(-c2cnn(C)c2)cc1Nc1ncc(Br)c(Nc2ccccc2P(C)(C)=O)n1 [Compound 2] , thanks.
7.75

Let me know recorded pIC50 for COc1cc(N2CCC(N3CCN(CCF)CC3)CC2)c(-c2cnn(C)c2)cc1Nc1ncc(Br)c(Nc2ccccc2N(C)S(=O)(=O)C2CC2)n1 [compound 209] , thanks.
8.01

Let me know recorded pIC50 for COc1cc(N2CCN(CCF)CC2)c(-c2cnn(C)c2)cc1Nc1ncc(Br)c(Nc2ccc3nccnc3c2P(C)(C)=O)n1 [compound 103] , thanks.
8.80

Let me know recorded pIC50 for COc1cc(N2CCN3CCCC[C@@H]3C2)c(-c2cnn(C)c2)cc1Nc1ncc(Br)c(Nc2ccc3nccnc3c2P(C)(C)=O)n1 [compound 175] , thanks.
8.51

Let me know recorded pIC50 for COc1cc(S(C)(=O)=O)c(-c2cnn(C)c2)cc1Nc1ncc(Br)c(Nc2ccc3nccnc3c2P(C)(C)=O)n1 [compound 44] , thanks.
5.81

Let me know recorded pIC50 for COC[C@@H]1CN(c2cc(OC)c(Nc3ncc(Br)c(Nc4ccc5nccnc5c4P(C)(C)=O)n3)cc2-c2cnn(C)c2)CCO1 [compound 127] , thanks.
8.55

Let me know recorded pIC50 for CCN1CCN(c2cc(OC)c(Nc3ncc(Br)c(Nc4ccc5nccnc5c4P(C)(C)=O)n3)cc2-c2cnn(C)c2)CC1 [compound 89] , thanks.
8.68

Let me know recorded pIC50 for [2H]C([2H])([2H])N(c1cc(OC)c(Nc2ncc(Br)c(Nc3ccc4nccnc4c3P(C)(C)=O)n2)cc1-c1cnn(C)c1)C([2H])([2H])[2H] [compound 145] , thanks.
8.46

Let me know recorded pIC50 for COc1cc(N2CCOCC2)c(-c2cnn(C)c2)cc1Nc1ncc(C#N)c(Nc2ccc3nccnc3c2P(C)(C)=O)n1 [Compound 13] , thanks.
8.12

Let me know recorded pIC50 for COc1cc(N2CCC(OC)CC2)c(-c2cnn(C)c2)cc1Nc1ncc(Br)c(Nc2ccc3nccnc3c2P(C)(C)=O)n1 [compound 26] , thanks.
8.24

Let me know recorded pIC50 for COc1cc(N2CCOCC2)c(-c2cnn(C)c2)cc1Nc1ncc(Cl)c(Nc2ccc3nccnc3c2P(C)(C)=O)n1 [compound 72] , thanks.
8.33

Let me know recorded pIC50 for COc1ccc(-c2cnoc2)cc1Nc1ncc(Br)c(Nc2ccc3nccnc3c2P(C)(C)=O)n1 [compound 9] , thanks.
7.12

Let me know recorded pIC50 for COc1cc(N2CCC(OC(C)C)CC2)c(-c2cnn(C)c2)cc1Nc1ncc(Br)c(Nc2ccc3nccnc3c2P(C)(C)=O)n1 [compound 151] , thanks.
7.42

Let me know recorded pIC50 for COc1cc(N2CCS(=O)(=O)CC2)c(-c2cnn(C)c2)cc1Nc1ncc(Br)c(Nc2ccc3nccnc3c2P(C)(C)=O)n1 [compound 94] , thanks.
8.56

Let me know recorded pIC50 for COc1ccc(-c2cnn(C)c2)cc1Nc1ncc(Br)c(Nc2ccc3nccnc3c2P(C)(C)=O)n1 [compound 5] , thanks.
8.09

Let me know recorded pIC50 for COc1cc(N2CCC(O)CC2)c(-c2cnn(C)c2)cc1Nc1ncc(Br)c(Nc2ccc3nccnc3c2P(C)(C)=O)n1 [compound 121] , thanks.
9.17

Let me know recorded pIC50 for COc1cc(N2CCC3(CCN(CC(F)(F)F)CC3)CC2)c(-c2cnn(C)c2)cc1Nc1ncc(Br)c(Nc2ccc3nccnc3c2P(C)(C)=O)n1 [compound 245] , thanks.
6.98

Let me know recorded pIC50 for COc1cc(N2CCC(N(C)C(C)C(F)(F)F)CC2)c(-c2cnn(C)c2)cc1Nc1ncc(Br)c(Nc2ccc3nccnc3c2P(C)(C)=O)n1 (centres unmarked) [compound 173] , thanks.
7.30

Let me know recorded pIC50 for COc1cc(N2CCN(S(C)(=O)=O)CC2)c(-c2cnn(C)c2)cc1Nc1ncc(Br)c(Nc2ccc3nccnc3c2P(C)(C)=O)n1 [compound 110] , thanks.
8.81
